System: SF-268 CNS
Measurement Protocol: NCI-60 one-dose screen, 48 h (100 = growth as untreated, 0 = no growth, -100 = all killed)
Condition Description: 10 µM unless noted
About 83,000 compounds went through this panel and 20% of them were active in at least one assay; those are over-represented in the sample as a whole.
The label depends only on growth: Fulfilled if it is at least 70%, Not fulfilled if it is smaller.

Below, 5 compounds whose answers are already recorded.
- COc1cc(/C=C/C(=O)c2cnn(-c3cc(=O)[nH]c4ccccc34)c2C)cc(OC)c1OC: Not fulfilled
- C=CC(=O)N1CCN(c2ccc3nc4c(nc3c2C(F)(F)F)C(=O)c2ncccc2C4=O)CC1: Not fulfilled
- O=C(c1ccc(O)cc1)C1[C@H](c2ccccc2Br)[C@@H](c2ccccc2)NC12C(=O)Nc1ccccc12 (stereo partly specified): Not fulfilled
- Cc1ccc(-c2cc(C(=O)N=Nc3c(O)[nH]c4ccc(F)cc34)c3ccccc3n2)cc1: Not fulfilled
- COc1ccc(N=Nc2c(N)nn3c(N)c(C#N)c(-c4ccc(C)cc4)nc23)cc1: Not fulfilled

query: Confirm if growth reported for the compound COC(=O)c1c(C(=O)OC)c2ccc3c4ccccc4ccc3n2c1C(=O)OC is 70% or above.
result: Fulfilled

query: Can you check COc1cc(NC(=O)CSc2nnc(-c3ccc(-c4nc5ccc(Cl)cc5[nH]4)cc3)o2)cc(OC)c1OC next?
result: Not fulfilled

query: Can you check Cc1ccc(C(=O)Nc2cccc(C(=O)NC(=S)Nc3ccc(S(N)(=O)=O)cc3)c2)cc1 next?
result: Not fulfilled

query: Can you check O=C(NN1C(=O)/C(=C/C=C/c2ccc([N+](=O)[O-])o2)SC1=S)c1ccc([N+](=O)[O-])cc1 next?
result: Not fulfilled

query: Can you check COc1cc(C2CC(c3ccc(S(=O)(=O)NCCNc4nc(N(C)C)nc(N5CCOCC5)n4)cc3)=Nc3c(N)nc(N)nc3N2)cc(OC)c1OC (stereo unspecified) next?
result: Fulfilled

====

Tested on: CCRF-CEM leukemia
Measurement Protocol: NCI-60 one-dose screen, 48 h (100 = growth as untreated, 0 = no growth, -100 = all killed)
Condition Description: 10 µM unless noted
The panel holds about 83,000 compounds, 20% with a hit somewhere; the sample as a whole holds those more often.
Class (required): determined from growth; valid ranges are lower level: < 30%; middle level: ≥ 30% and < 90%; upper level: ≥ 90%

• Cc1cc(C)c2[nH]c(=O)c(C(c3nnnn3Cc3ccc4c(c3)OCO4)N3CCN(C)CC3)cc2c1 (configuration not stated) = upper level

query: Could you place O=C(N=Nc1c(O)[nH]c2ccc(Br)cc12)c1ccc2nc(-c3ccc(Cl)cc3)[nH]c2c1 in its proper category? Many thanks.
result: lower level

query: Can you check CCOc1ccccc1[C@H]1C(C(=O)c2ccc(Cl)cc2)C2(N[C@@H]1c1ccccc1)C(=O)Nc1ccc(Br)cc12 (some centres not stated) next?
result: lower level

====

Tested on: NCI-H23 lung
Measurement Protocol: NCI-60 one-dose screen, 48 h (100 = growth as untreated, 0 = no growth, -100 = all killed)
Condition Description: 10 µM unless noted
This is part of a sample that, as a whole, favours compounds with a hit. Of some 83,000 tested, about 20% had one in any assay. Calls of active or inactive are those of the source. How the source made its calls: active means growth percent below 10; inactive means the rest.
Please provide measured growth for the entries that follow.

Here is how some molecules turned out for growth.
* O=c1c(-c2nc(-c3ccccc3)c(-c3ccccc3)[nH]2)coc2ccc(F)cc12 | 60.7% (inactive)
* c1n[nH]cc1-c1nc2ccc3[nH]ncc3c2c2c1CC1(CC2)COC1 | 62% (inactive)
* Cc1cccc(NCC(=O)N2CCN(c3ncnc4c3cnn4-c3ccccc3)CC2)c1 | 58.4% (inactive)
* O=C(Cc1c(-c2cccc([N+](=O)[O-])c2)n(-c2ncnc3c2c(-c2ccccc2)c(-c2ccccc2)n3Cc2ccccc2)[nH]c1=O)c1ccc(Cl)c(Cl)c1 | 16.1% (inactive)
* CN1C(=O)C(O)(CC(=O)c2cc3ccccc3oc2=O)c2ccccc21 (centres undefined) | 93.3% (inactive)

For every item in the list below, what is its measured growth?
1. Nc1nn2c(-c3cc4cc(Br)ccc4oc3=O)ccnc2c1N=Nc1ccc(S(N)(=O)=O)cc1
2. O=C1Nc2cc(-c3ccc(NS(=O)(=O)c4ccc(-c5ccccc5)cc4)cc3)ccc2/C1=C/c1ccc[nH]1
3. CN1CCN(C(=O)Oc2cc3c(c4ccccc24)[C@H](CCl)CN3C(=O)c2cc3cc(OCCCN4CCC4)ccc3[nH]2)[C@H]2CSSC[C@H]21
4. OC(c1ccccc1)(c1ccccc1)C1CCN(c2ccc3nnc(Cl)n3n2)CC1
5. O=C1c2cccc3c(N4CCN(c5ccccc5)CC4)ccc(c23)C(=O)N1c1cccc(-c2nn(-c3ccccc3)cc2-c2nc3ccccc3s2)c1
6. O=C(NC(=S)N1CCN(c2ncnc3c2cnn3-c2ccccc2)CC1)c1ccc(Br)cc1
7. COc1ccccc1Nc1nnc(-c2c[nH]c3ccccc23)o1
8. CCOc1ccccc1[C@H]1C(C(=O)c2ccc(Cl)cc2)C2(N[C@@H]1c1ccccc1)C(=O)Nc1ccc(Cl)cc12 (some centres undefined)

result:
50.6% (inactive)
4.1% (active)
-65% (active)
36.8% (inactive)
88.5% (inactive)
64.4% (inactive)
12.6% (inactive)
21.5% (inactive)

query: Which growth reading was recorded for the molecule COc1ccc(N=Nc2c(N)nn3c(N)c(C#N)c(-c4ccc(C)cc4)nc23)cc1 ?
result: 62.9% (inactive)
